Answer each item with its documented Inhibition of Factor XI protein relative to the PBS control.
- Tested on: Factor XI protein
- ASSAY_PROTOCOL: Cynomolgus monkeys: plasma Factor XI protein ELISA (Example 29)
- Assay type: in vivo
- MEASUREMENT_CONDITIONS: escalating doses 5, 10, 25 mg/kg s.c., day 43
In the oligonucleotide strings, read from the 5' end, every base follows the letter of its sugar. An asterisk marks phosphorothioate; unmarked linkages are phosphodiester. Other units and linkages are bracketed, terminal groups are in braces. A string of capitals states the bases alone. e = 2'-O-(2-methoxyethyl) (MOE); [5mC] = 5-methylcytosine; d = 2'-deoxy (DNA)
Give the value, in units of %, as a plain number.

Prompt line: Entry under review: ISIS 416838: gapmer of Table 6 (antisense eG*e[5mC]*eA*eA*e[5mC]*d[5mC]*dG*dG*dG*dA*dT*dG*dA*dT*dG*eA*eG*eT*eG*e[5mC]) . Reported Inhibition of Factor XI protein relative to the PBS control?
Response line: 5

Prompt line: Entry under review: ISIS 416864: gapmer of Table 8 (antisense eG*eG*e[5mC]*eA*eG*d[5mC]*dG*dG*dA*d[5mC]*dG*dG*d[5mC]*dA*dT*eT*eG*eG*eT*eG) . Reported Inhibition of Factor XI protein relative to the PBS control?
Response line: 9

Prompt line: Entry under review: ISIS 417002: gapmer of Table 8 (antisense eG*eG*dT*dG*d[5mC]*dA*d[5mC]*dA*dG*dT*dT*dT*d[5mC]*dT*dG*eG*e[5mC]*eA*eG*eG) . Reported Inhibition of Factor XI protein relative to the PBS control?
Response line: 9

Prompt line: Entry under review: ISIS 416850: gapmer of Table 8 (antisense eT*eG*e[5mC]*eA*e[5mC]*dA*dG*dT*dT*dT*d[5mC]*dT*dG*dG*d[5mC]*eA*eG*eG*e[5mC]*e[5mC]) . Reported Inhibition of Factor XI protein relative to the PBS control?
Response line: 23

Prompt line: Entry under review: ISIS 416858: gapmer of Table 8 (antisense eA*e[5mC]*eG*eG*e[5mC]*dA*dT*dT*dG*dG*dT*dG*d[5mC]*dA*d[5mC]*eA*eG*eT*eT*eT) . Reported Inhibition of Factor XI protein relative to the PBS control?
Response line: 39
